Assay details: Log P by shaking flask method (n-octanol/water)
Assay type: physicochemical
Assay context: 25 °C, 48 h, read-out: Log P Value

{"columns": ["Compound", "logP at 48 h"],
 "data": [
  ["CC(C)=C/C=C/[C@H](C)[C@H]1CC[C@]2(C)C[C@@H]3C(C)=CC(=O)[C@H]3/C(C=O)=C\\C[C@@H]12 [MHO7, 6-epi-ophiobolin G]", 1.29]
]}

---

Assay details: Log P by shaking flask method (n-octanol/water)
Format: physicochemical
Assay context: pH 7, 37 °C, octanol/ddH2O, 8 h, read-out: Log P/D Value O/W (pH 7.0)

{"columns": ["Molecule", "logP at 8 h"],
 "data": [
  ["CC(C)=C/C=C/[C@H](C)[C@H]1CC[C@]2(C)C[C@@H]3C(C)=CC(=O)[C@H]3/C(C=O)=C\\C[C@@H]12 [MHO7, 6-epi-ophiobolin G]", 2.51]
]}

---

Assay details: Log D by shaking flask method (n-octanol/phosphate buffer)
Type: physicochemical
Assay context: 37 °C, octanol/PBS pH 7.4, 8 h, read-out: Log P/D Value O/P (pH 7.4)
Recorded endpoint: logD at 8 h

{"columns": ["Compound", "Recorded endpoint", "Result"],
 "data": [
  ["CC(C)=C/C=C/[C@H](C)[C@H]1CC[C@]2(C)C[C@@H]3C(C)=CC(=O)[C@H]3/C(C=O)=C\\C[C@@H]12 [MHO7, 6-epi-ophiobolin G]", "logD at 8 h", 1.37]
]}

---

Assay details: Tissue distribution after single oral dose
Format: in vivo, mice
Assay context: KM, mouse, muscle (hind limb); 30 h; oral 500 mg·kg^−1, female mice; read-out: Concentration in Muscle

{"columns": ["Compound", "Readout unit", "concentration at 30 h"],
 "data": [
  ["CC(C)=C/C=C/[C@H](C)[C@H]1CC[C@]2(C)C[C@@H]3C(C)=CC(=O)[C@H]3/C(C=O)=C\\C[C@@H]12 [MHO7, 6-epi-ophiobolin G]", "ng/g", 20]
]}

---

Assay details: Plasma pharmacokinetics after single oral dose
Assay type: in vivo
Assay context: KM, mouse; mice plasma, single oral 500 mg·kg^−1, female mice
Experimental: Ninety female KM mice of 8–10 weeks of age (20–22 g) were divided randomly into 15 groups, and, after fasting for 12 h, the mice in other experiments were oral administrated at the dose of 500 mg·kg^−1 bw. […] MHO7 levels in plasma were quantified by HPLC–MS/MS. The calibration curve was constructed by plotting the peak area ratio of MHO7 to the internal standard and the linearity was determined by weighted (1/x) linear regression analysis. […]

{"columns": ["Compound", "Cmax [ng/mL]"],
 "data": [
  ["CC(C)=C/C=C/[C@H](C)[C@H]1CC[C@]2(C)C[C@@H]3C(C)=CC(=O)[C@H]3/C(C=O)=C\\C[C@@H]12 [MHO7, 6-epi-ophiobolin G]", 1380]
]}

---

Assay details: Tissue distribution after single oral dose
Format: in vivo, mice
Assay context: KM, mouse, kidney; 4 h; oral 500 mg·kg^−1, female mice; read-out: Concentration in Kidney

{"columns": ["Molecule", "concentration at 4 h (ng/g)"],
 "data": [
  ["CC(C)=C/C=C/[C@H](C)[C@H]1CC[C@]2(C)C[C@@H]3C(C)=CC(=O)[C@H]3/C(C=O)=C\\C[C@@H]12 [MHO7, 6-epi-ophiobolin G]", 1630]
]}

Source listed as paper PMC6950057.
